This collection of values is drawn from paper PMC3527362.

Substrate: NC(=O)N[C@@H](O)C(=O)O
protocol-notes: purified protein
Type: biochemical, Escherichia coli
cond: 3 mM NAD+ (saturating), 30 °C, value in parentheses is standard error, His-tag kept
We begin with a simple list: items and their reported kcat/Km.
outcome-measure: kcat/Km (M⁻¹ s⁻¹)

| protein | measurement |
| --- | --- |
| (S)-ureidoglycolate dehydrogenase (AllD) (Escherichia coli K-12; H44A) (protein, full length, modified pET28b with N-terminal His-tag and TEV site, expressed in E. coli BL21(DE3); tag cut for crystals, kept on mutant enzymes for kinetics; homodimer) MKISRETLHQLIENKLCQAGLKREHAATVAEVLVYADARGIHSAGAVRVEYYAERISKGGTNREPEFRLEETGPCSAILHADNAAGQVAAKMGMEHAIKTAQQNGVAVVGISRMGHSGAISYFVQQAARAGFIGISMCQSDPMVVPFGGAEIYYGTNPLAFAAPGEGDEILTFDMATTVQAWGKVLDARSRNMSIPDTWAVDKNGVPTTDPFAVHALLPAAGPKGYGLMMMIDVLSGVLLGLPFGRQVSSMYDDLHAGRNLGQLHIVINPNFFSSSELFRQHLSQTMRELNAITPAPGFNQVYYPGQDQDIKQRKAAVEGIEIVDDIYQYLISDALYNTSYETKNPFAQ | 100 |
| (S)-ureidoglycolate dehydrogenase (AllD) (Escherichia coli K-12; M251A) (protein, full length, modified pET28b with N-terminal His-tag and TEV site, expressed in E. coli BL21(DE3); tag cut for crystals, kept on mutant enzymes for kinetics; homodimer) MKISRETLHQLIENKLCQAGLKREHAATVAEVLVYADARGIHSHGAVRVEYYAERISKGGTNREPEFRLEETGPCSAILHADNAAGQVAAKMGMEHAIKTAQQNGVAVVGISRMGHSGAISYFVQQAARAGFIGISMCQSDPMVVPFGGAEIYYGTNPLAFAAPGEGDEILTFDMATTVQAWGKVLDARSRNMSIPDTWAVDKNGVPTTDPFAVHALLPAAGPKGYGLMMMIDVLSGVLLGLPFGRQVSSAYDDLHAGRNLGQLHIVINPNFFSSSELFRQHLSQTMRELNAITPAPGFNQVYYPGQDQDIKQRKAAVEGIEIVDDIYQYLISDALYNTSYETKNPFAQ | 3490 |
| (S)-ureidoglycolate dehydrogenase (AllD) (Escherichia coli K-12; D141A) (protein, full length, modified pET28b with N-terminal His-tag and TEV site, expressed in E. coli BL21(DE3); tag cut for crystals, kept on mutant enzymes for kinetics; homodimer) MKISRETLHQLIENKLCQAGLKREHAATVAEVLVYADARGIHSHGAVRVEYYAERISKGGTNREPEFRLEETGPCSAILHADNAAGQVAAKMGMEHAIKTAQQNGVAVVGISRMGHSGAISYFVQQAARAGFIGISMCQSAPMVVPFGGAEIYYGTNPLAFAAPGEGDEILTFDMATTVQAWGKVLDARSRNMSIPDTWAVDKNGVPTTDPFAVHALLPAAGPKGYGLMMMIDVLSGVLLGLPFGRQVSSMYDDLHAGRNLGQLHIVINPNFFSSSELFRQHLSQTMRELNAITPAPGFNQVYYPGQDQDIKQRKAAVEGIEIVDDIYQYLISDALYNTSYETKNPFAQ | 310 |
